From: BigSolDB 2.1

Condition parameters: in acetonitrile, 313.15 K
Readout label: solubility (mole fraction)
Form field (numeric): enter value without unit.

Ask: Quickly give me recorded solubility (mole fraction) for `Cl.OC(CCCN1CCCCC1)(c1ccccc1)c1ccccc1`
Reply: 0.000747

---

Condition parameters: in DMSO, 318.15 K
Readout label: solubility (mole fraction)
Form field (numeric): enter value without unit.

Ask: Quickly give me recorded solubility (mole fraction) for `Cl.OC(CCCN1CCCCC1)(c1ccccc1)c1ccccc1`
Reply: 0.0213

---

Condition parameters: in NMP, 303.15 K
Readout label: solubility (mole fraction)
Form field (numeric): enter value without unit.

Ask: Quickly give me recorded solubility (mole fraction) for `Cl.OC(CCCN1CCCCC1)(c1ccccc1)c1ccccc1`
Reply: 0.00826

---

Condition parameters: in DMAc, 298.15 K
Readout label: solubility (mole fraction)
Form field (numeric): enter value without unit.

Ask: Quickly give me recorded solubility (mole fraction) for `Cl.OC(CCCN1CCCCC1)(c1ccccc1)c1ccccc1`
Reply: 0.00357

---

Condition parameters: in DMF, 293.15 K
Readout label: solubility (mole fraction)
Form field (numeric): enter value without unit.

Ask: Quickly give me recorded solubility (mole fraction) for `Cl.OC(CCCN1CCCCC1)(c1ccccc1)c1ccccc1`
Reply: 0.00408

---

Condition parameters: in DMSO, 303.15 K
Readout label: solubility (mole fraction)

Ask: Quickly give me recorded solubility (mole fraction) for `Cl.OC(CCCN1CCCCC1)(c1ccccc1)c1ccccc1`
Reply: 0.0148

---

Condition parameters: in NMP, 293.15 K
Readout label: solubility (mole fraction)
Form field (numeric): enter value without unit.

Ask: Quickly give me recorded solubility (mole fraction) for `Cl.OC(CCCN1CCCCC1)(c1ccccc1)c1ccccc1`
Reply: 0.00616

---

Condition parameters: in DMSO, 298.15 K
Readout label: solubility (mole fraction)
Form field (numeric): enter value without unit.

Ask: Quickly give me recorded solubility (mole fraction) for `Cl.OC(CCCN1CCCCC1)(c1ccccc1)c1ccccc1`
Reply: 0.0134

---

Condition parameters: in ethanol, 293.15 K
Readout label: solubility (mole fraction)
Form field (numeric): enter value without unit.

Ask: Quickly give me recorded solubility (mole fraction) for `Cl.OC(CCCN1CCCCC1)(c1ccccc1)c1ccccc1`
Reply: 0.00275

---

Condition parameters: in NMP, 308.15 K
Readout label: solubility (mole fraction)
Form field (numeric): enter value without unit.

Ask: Quickly give me recorded solubility (mole fraction) for `Cl.OC(CCCN1CCCCC1)(c1ccccc1)c1ccccc1`
Reply: 0.00921

---

Condition parameters: in n-butanol, 278.15 K
Readout label: solubility (mole fraction)
Form field (numeric): enter value without unit.

Ask: Quickly give me recorded solubility (mole fraction) for `Cl.OC(CCCN1CCCCC1)(c1ccccc1)c1ccccc1`
Reply: 0.000548

---

Condition parameters: in DMAc, 323.15 K
Readout label: solubility (mole fraction)
Form field (numeric): enter value without unit.

Ask: Quickly give me recorded solubility (mole fraction) for `Cl.OC(CCCN1CCCCC1)(c1ccccc1)c1ccccc1`
Reply: 0.00697

---

Condition parameters: in acetonitrile, 303.15 K
Readout label: solubility (mole fraction)

Ask: Quickly give me recorded solubility (mole fraction) for `Cl.OC(CCCN1CCCCC1)(c1ccccc1)c1ccccc1`
Reply: 0.000497

---

Condition parameters: in acetonitrile, 298.15 K
Readout label: solubility (mole fraction)
Form field (numeric): enter value without unit.

Ask: Quickly give me recorded solubility (mole fraction) for `Cl.OC(CCCN1CCCCC1)(c1ccccc1)c1ccccc1`
Reply: 0.000412
